- Test system: GFP-9S motif 4 ID (synthetic construct)
- measurementDescription: HRP pulldown
- measurementSetup: lysate; HRP: 50 mM Tris pH 8, 150 mM NaCl, 1 mM bME, 50 ug/ml BSA, 3 ug/ml yeast RNA, 0.5% heparin, 2 nM RNA; ITC (25 C) and FP: Tris pH 8, 200 mM KCl, 5% glycerol …

[
  {
    "biosequence": "AUUAAACGUGA [IR-rpoA-A]",
    "assaySystem": "GFP-9S motif 4 ID (synthetic construct)",
    "Kd": "175 nM"
  },
  {
    "biosequence": "AUUAGACGUGA [Cy5-rpoA-G]",
    "assaySystem": "GFP-9S motif 4 ID (synthetic construct)",
    "Kd": "127 nM"
  },
  {
    "biosequence": "AUUAUACGUGA [IR-rpoA-U]",
    "assaySystem": "GFP-9S motif 4 ID (synthetic construct)",
    "Kd": "53.5 nM"
  },
  {
    "biosequence": "AUUACACGUGA [Cy5-rpoA]",
    "assaySystem": "GFP-9S motif 4 ID (synthetic construct)",
    "Kd": "153 nM"
  }
]
